Data provenance: ChEMBL document CHEMBL1641461

experimental target: Prostaglandin D2 receptor 2 (Homo sapiens)
Sequence (Q9Y5Y4 whole entry): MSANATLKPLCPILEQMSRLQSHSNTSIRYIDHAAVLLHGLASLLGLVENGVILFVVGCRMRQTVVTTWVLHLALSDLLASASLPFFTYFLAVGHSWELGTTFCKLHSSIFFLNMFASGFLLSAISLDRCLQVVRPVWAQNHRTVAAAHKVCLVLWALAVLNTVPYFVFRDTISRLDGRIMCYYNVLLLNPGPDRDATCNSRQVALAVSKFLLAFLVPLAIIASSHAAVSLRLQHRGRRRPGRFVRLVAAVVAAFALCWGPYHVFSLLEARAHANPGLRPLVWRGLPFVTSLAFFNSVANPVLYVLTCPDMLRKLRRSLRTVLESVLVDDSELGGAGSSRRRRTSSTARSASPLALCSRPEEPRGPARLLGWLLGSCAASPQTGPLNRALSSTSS
experiment: Antagonist activity at human CRTH2 expressed in HEK293 cells assessed as inhibition of forskolin-induced increase intracellular [125I]cAMP level by scintillation proximity assay
readout name: IC50 (nM)

In the examples that follow, each entry is paired with its recorded IC50.
{"compound": "CN(C(=O)C1(c2ccc(F)cc2)CCCC1)[C@@H]1CCc2c(CC(=O)O)c3cccnc3n2C1", "unit info": "nM", "IC50": 4.5}
{"compound": "C[C@H](C(=O)N(C)[C@@H]1CCc2c(CC(=O)O)c3cccnc3n2C1)c1ccc(F)cc1", "unit info": "nM", "IC50": 73.8}
{"compound": "CN([C@@H]1CCc2c(CC(=O)O)c3ccncc3n2C1)S(=O)(=O)c1ccc(F)cc1", "unit info": "nM", "IC50": 351}
{"compound": "CN([C@@H]1CCc2c(CC(=O)O)c3ccc(-c4ccc(F)cc4)nc3n2C1)S(=O)(=O)c1ccc(F)cc1", "unit info": "nM", "IC50": 3.6}
{"compound": "CN(C(=O)C(C)(C)c1ccc(F)cc1)[C@@H]1CCc2c(CC(=O)O)c3cccnc3n2C1", "unit info": "nM", "IC50": 3.5}

(I) CN(C(=O)C1(c2ccc(F)cc2)CCC1)[C@@H]1CCc2c(CC(=O)O)c3cccnc3n2C1
(II) CN(C(=O)C1(c2ccc(F)cc2)CCOCC1)[C@@H]1CCc2c(CC(=O)O)c3cccnc3n2C1
(III) CN([C@@H]1CCc2c(CC(=O)O)c3ccc(Cl)nc3n2C1)S(=O)(=O)c1ccc(F)cc1
Hi! Can you put these in order of IC50, lowest number first? Give the order by naming the labels one after another as requested.
III, I, II

====

Entries and their pKi
experimental target: Prostaglandin D2 receptor (Homo sapiens, UniProt Q13258)
Sequence (Q13258 whole entry): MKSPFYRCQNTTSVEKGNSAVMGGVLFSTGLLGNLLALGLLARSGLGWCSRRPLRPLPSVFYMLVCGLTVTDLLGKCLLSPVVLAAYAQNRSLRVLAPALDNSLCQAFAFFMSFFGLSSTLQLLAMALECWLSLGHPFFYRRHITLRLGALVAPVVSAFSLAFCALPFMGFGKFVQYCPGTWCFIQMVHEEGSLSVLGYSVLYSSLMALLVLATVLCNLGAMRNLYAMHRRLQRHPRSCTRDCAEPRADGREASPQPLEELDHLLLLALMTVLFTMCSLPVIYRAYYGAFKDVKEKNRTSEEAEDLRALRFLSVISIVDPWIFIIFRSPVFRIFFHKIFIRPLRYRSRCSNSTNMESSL
experiment: Displacement of radioligand from prostanoid DP receptor expressed in HEK293 cells by competitive binding assay
pKi: −log10 of the molar value.

In the examples that follow, each entry is paired with its recorded pKi.
{"compound": "CN([C@@H]1CCc2c(CC(=O)O)c3cnccc3n2C1)S(=O)(=O)c1ccc(F)cc1", "pKi": "< 5.47"}
{"compound": "CN(C(=O)C1(c2ccc(F)cc2)CCC1)[C@@H]1CCc2c(CC(=O)O)c3cccnc3n2C1", "pKi": "< 5.40"}
{"compound": "CN(C(=O)C1(c2ccc(F)cc2)CC1)[C@@H]1CCc2c(CC(=O)O)c3cccnc3n2C1", "pKi": "< 5.43"}

Which pKi is reported for this compound? CN(C(=O)C1(c2ccc(F)cc2)CC1(C)C)[C@@H]1CCc2c(CC(=O)O)c3cccnc3n2C1 (some centres undefined)
< 5.40

====

Target protein (sequence): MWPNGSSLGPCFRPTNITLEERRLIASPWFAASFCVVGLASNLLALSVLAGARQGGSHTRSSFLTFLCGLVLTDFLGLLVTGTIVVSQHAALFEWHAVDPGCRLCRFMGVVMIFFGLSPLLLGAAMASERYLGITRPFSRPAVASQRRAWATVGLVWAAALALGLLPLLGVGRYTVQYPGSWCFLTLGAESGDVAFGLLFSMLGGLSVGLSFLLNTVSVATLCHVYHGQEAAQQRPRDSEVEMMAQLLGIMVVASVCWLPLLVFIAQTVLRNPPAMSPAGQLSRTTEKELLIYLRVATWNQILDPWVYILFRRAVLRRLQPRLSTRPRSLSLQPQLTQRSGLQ
Entries and their Ki

In the examples that follow, each entry is paired with its recorded Ki.
{"query smiles": "CN(C(=O)C1(c2ccc(F)cc2)CCCC1)[C@@H]1CCc2c(CC(=O)O)c3cccnc3n2C1", "Ki": "> 7.2 µM"}
{"query smiles": "CN([C@@H]1CCc2c(CC(=O)O)c3ccc(Cl)nc3n2C1)S(=O)(=O)c1ccc(F)cc1", "Ki": "> 27 µM"}
{"query smiles": "CN(C(=O)C1(c2ccc(F)cc2)CC1)[C@@H]1CCc2c(CC(=O)O)c3cccnc3n2C1", "Ki": "> 6.8 µM"}
{"query smiles": "CN([C@@H]1CCc2c(CC(=O)O)c3ccc(-c4ccc(F)cc4)nc3n2C1)S(=O)(=O)c1ccc(F)cc1", "Ki": "> 1 µM"}

In the following, a different molecule is considered.
Which Ki is reported for this molecule? `CN([C@@H]1CCc2c(CC(=O)O)c3cnccc3n2C1)S(=O)(=O)c1ccc(F)cc1`
> 6.8 µM

====

experiment: Clearance in Sprague-Dawley rat at 5 mg/kg, po and 1 mg/kg, iv
Assay type: ADME, organism-based
settings: in vivo
readout name: clearance (mL/min/kg)

{"query smiles": "CN([C@@H]1CCc2c(CC(=O)O)c3ccccc3n2C1)S(=O)(=O)c1ccc(F)cc1", "readout name": "clearance", "observed": 3.9}
{"query smiles": "CN(C(=O)C(C)(C)c1ccc(F)cc1)[C@@H]1CCc2c(CC(=O)O)c3cccnc3n2C1", "readout name": "clearance", "observed": 21}
{"query smiles": "CN(C(=O)C1(c2ccc(F)cc2)CCCC1)[C@@H]1CCc2c(CC(=O)O)c3cccnc3n2C1", "readout name": "clearance", "observed": 18}
{"query smiles": "CN(C(=O)C1(c2ccc(F)cc2)CCC1)[C@@H]1CCc2c(CC(=O)O)c3cccnc3n2C1", "readout name": "clearance", "observed": 28}
{"query smiles": "C[C@@H](C(=O)N(C)[C@@H]1CCc2c(CC(=O)O)c3cccnc3n2C1)c1ccc(F)cc1", "readout name": "clearance", "observed": 3.6}

(P) CN([C@@H]1CCc2c(CC(=O)O)c3cccnc3n2C1)S(=O)(=O)c1ccc(F)cc1
(Q) CN(C(=O)C1(c2ccc(F)cc2)CC1)[C@@H]1CCc2c(CC(=O)O)c3cccnc3n2C1
Kindly identify the item with the lower clearance figure among these two: P and Q Bench note: the answer is the label of the chosen record.
P
(P: 0.4 mL/min/kg, Q: 12 mL/min/kg)

====

experimental target: Cytochrome P450 2C9 (Homo sapiens)
Sequence (P11712 whole entry): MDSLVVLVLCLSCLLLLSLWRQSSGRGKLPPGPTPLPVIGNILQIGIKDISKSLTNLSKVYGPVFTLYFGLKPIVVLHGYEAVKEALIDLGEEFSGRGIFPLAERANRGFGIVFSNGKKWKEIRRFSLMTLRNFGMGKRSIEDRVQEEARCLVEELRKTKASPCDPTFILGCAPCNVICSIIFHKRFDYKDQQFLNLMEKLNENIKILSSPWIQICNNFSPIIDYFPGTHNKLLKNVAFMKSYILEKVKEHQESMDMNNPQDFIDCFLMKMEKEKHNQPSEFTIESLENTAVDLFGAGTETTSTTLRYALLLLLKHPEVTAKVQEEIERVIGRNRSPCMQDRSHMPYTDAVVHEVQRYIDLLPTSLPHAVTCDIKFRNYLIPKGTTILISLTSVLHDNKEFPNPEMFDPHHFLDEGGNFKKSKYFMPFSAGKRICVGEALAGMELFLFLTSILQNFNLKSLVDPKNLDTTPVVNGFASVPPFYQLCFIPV
experiment: Inhibition of CYP2C9
Format: ADME
pIC50: −log10 of the molar value.
readout name: pIC50

Which pIC50 is reported for this molecule? `C[C@@H](C(=O)N(C)[C@@H]1CCc2c(CC(=O)O)c3cccnc3n2C1)c1ccc(F)cc1`
< 4.30

====

experiment: Volume of distribution in Sprague-Dawley rat at 5 mg/kg, po and 1 mg/kg, iv
Type: ADME, organism-based
settings: in vivo
readout name: Vd (L/kg)

{"query smiles": "CN([C@@H]1CCc2c(CC(=O)O)c3ccccc3n2C1)S(=O)(=O)c1ccc(F)cc1", "Vd [L/kg]": 1.15}
{"query smiles": "CN(C(=O)C(C)(C)c1ccc(F)cc1)[C@@H]1CCc2c(CC(=O)O)c3cccnc3n2C1", "Vd [L/kg]": 1.54}
{"query smiles": "C[C@@H](C(=O)N(C)[C@@H]1CCc2c(CC(=O)O)c3cccnc3n2C1)c1ccc(F)cc1", "Vd [L/kg]": 0.67}
{"query smiles": "CN(C(=O)C1(c2ccc(F)cc2)CCC1)[C@@H]1CCc2c(CC(=O)O)c3cccnc3n2C1", "Vd [L/kg]": 4.58}
{"query smiles": "CN(C(=O)C1(c2ccc(F)cc2)CCCC1)[C@@H]1CCc2c(CC(=O)O)c3cccnc3n2C1", "Vd [L/kg]": 1.72}

(A) CN(C(=O)C1(c2ccc(F)cc2)CC1)[C@@H]1CCc2c(CC(=O)O)c3cccnc3n2C1
(B) CN([C@@H]1CCc2c(CC(=O)O)c3cccnc3n2C1)S(=O)(=O)c1ccc(F)cc1
Kindly identify the item with the lower Vd figure among these two: A and B Bench note: the answer is the label of the chosen record.
B
(B: 0.23 L/kg, A: 2.2 L/kg)

====

experiment: Half life in Sprague-Dawley rat at 5 mg/kg, po and 1 mg/kg, iv
Type: ADME, organism-based
settings: in vivo
readout name: half-life (h)

(I) C[C@@H](C(=O)N(C)[C@@H]1CCc2c(CC(=O)O)c3cccnc3n2C1)c1ccc(F)cc1
(II) CN(C(=O)C1(c2ccc(F)cc2)CCC1)[C@@H]1CCc2c(CC(=O)O)c3cccnc3n2C1
Higher half-life: I or II ? Bench note: the answer is the label of the chosen record.
I
(I: 4 h, II: 2.1 h)

(A) CN(C(=O)C(C)(C)c1ccc(F)cc1)[C@@H]1CCc2c(CC(=O)O)c3cccnc3n2C1
(B) CN(C(=O)C1(c2ccc(F)cc2)CC1)[C@@H]1CCc2c(CC(=O)O)c3cccnc3n2C1
(C) CN([C@@H]1CCc2c(CC(=O)O)c3cccnc3n2C1)S(=O)(=O)c1ccc(F)cc1
(D) CN(C(=O)C1(c2ccc(F)cc2)CCCC1)[C@@H]1CCc2c(CC(=O)O)c3cccnc3n2C1
Hi! Can you put these in order of half-life, lowest number first? Give the order by naming the labels one after another as requested.
A, B, C, D
